tested-target: Mot3 (UniProt P54785)
Sequence: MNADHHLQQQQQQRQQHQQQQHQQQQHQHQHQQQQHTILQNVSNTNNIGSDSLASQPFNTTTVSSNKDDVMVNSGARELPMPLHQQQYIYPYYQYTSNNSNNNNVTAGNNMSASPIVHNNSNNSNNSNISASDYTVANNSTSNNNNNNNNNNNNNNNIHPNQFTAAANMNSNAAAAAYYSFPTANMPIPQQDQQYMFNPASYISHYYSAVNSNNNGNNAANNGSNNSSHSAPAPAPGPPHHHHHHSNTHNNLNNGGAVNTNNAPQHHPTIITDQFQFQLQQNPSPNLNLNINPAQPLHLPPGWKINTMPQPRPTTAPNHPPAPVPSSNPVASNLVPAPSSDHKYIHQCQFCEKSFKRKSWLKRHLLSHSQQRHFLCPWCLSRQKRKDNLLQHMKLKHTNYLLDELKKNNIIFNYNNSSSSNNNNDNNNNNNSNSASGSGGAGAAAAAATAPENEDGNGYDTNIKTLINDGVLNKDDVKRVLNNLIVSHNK
run-description: PBM E-score (8-mer binding enrichment) (E-score (-0.5 to 0.5)); higher = stronger / more preferred TF binding
details: protein concentration: 200 nM; construct: GST-full length
Over roughly 33,000 sequences, “E-score (-0.5 to 0.5)” has its median near -0.035; the highest 2% begin near 0.34. This is one part of a sample in which the highest values are shown more often than they occur.
Response key: 1 (yes) means PBM E-score >= 0.02; 0 (no) means PBM E-score < 0.02.

Use these answered entries as a reference point.
CGCCACCC	0 (no)
GTGGTCTA	0 (no)
GGTGGGCA	0 (no)
AGCACCTA	1 (yes)
ACACGGTC	1 (yes)

Consider the additional sequence presented here.
Prompt: Is it the case that `GTACCTAA` has PBM E-score reaching or exceeding 0.02?
Response: 1 (yes)

====

sequences and their reported PBM E-score
tested-target: Mot3 (UniProt P54785)
Sequence: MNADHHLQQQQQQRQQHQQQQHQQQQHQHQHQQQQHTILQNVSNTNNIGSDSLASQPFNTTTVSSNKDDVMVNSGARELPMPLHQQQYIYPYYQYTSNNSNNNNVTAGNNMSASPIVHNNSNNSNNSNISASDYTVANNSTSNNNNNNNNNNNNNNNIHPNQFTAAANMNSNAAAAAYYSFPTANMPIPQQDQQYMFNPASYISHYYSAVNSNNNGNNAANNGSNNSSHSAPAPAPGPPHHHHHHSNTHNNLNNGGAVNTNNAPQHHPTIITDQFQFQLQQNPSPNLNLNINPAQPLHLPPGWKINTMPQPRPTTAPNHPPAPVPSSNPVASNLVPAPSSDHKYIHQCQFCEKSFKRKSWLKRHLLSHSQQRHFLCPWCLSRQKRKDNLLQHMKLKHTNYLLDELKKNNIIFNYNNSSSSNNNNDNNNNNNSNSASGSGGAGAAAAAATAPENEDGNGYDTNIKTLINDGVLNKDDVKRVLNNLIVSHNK
run-description: PBM E-score (8-mer binding enrichment) (E-score (-0.5 to 0.5)); higher = stronger / more preferred TF binding
details: protein concentration: 200 nM; construct: GST-full length
The full ranking holds about 33,000 sequences; the median of “E-score (-0.5 to 0.5)” is about -0.035, and the highest 2% start at about 0.34. The sample as a whole holds a higher share of the highest values than the screen did.
Could you keep your reply to the number by itself?

Guide cases for PBM E-score, answers given:
TCTTAACA	0.346
CCTGAACC	0.206
AGTTATAA	0.163
CGCGTAAC	0.225
CGCGTAAA	0.392
AGCCCGAT	-0.195
TACGAACA	0.18
CCTTAACA	0.315
CGCGTAAG	0.299
AGCGCTAG	-0.115

Prompt: Input `AGCTAACC` , output reported PBM E-score.
Response: -0.152

Prompt: // fetch PBM E-score given entry `ACTCCGGG`
Response: -0.248

Prompt: Give PBM E-score for the following sequence: `ACACTCCA`
Response: -0.141

Prompt: Given `CGAGCCAG` , respond with its PBM E-score.
Response: -0.0469

Prompt: Fill in PBM E-score for record `GCTTGTAA`
Response: 0.318

Prompt: Give reported PBM E-score value for `AGCGTAAA`
Response: 0.12

Prompt: Could you please provide reported PBM E-score for `GTGCATAA` ? Thanks!
Response: 0.084

Prompt: Write down PBM E-score measured for item `AGCATGTC`
Response: 0.218

Prompt: Please report the measured PBM E-score for `ATTTAACC`
Response: 0.0628

====

tested-target: Mot3 (UniProt P54785)
Sequence: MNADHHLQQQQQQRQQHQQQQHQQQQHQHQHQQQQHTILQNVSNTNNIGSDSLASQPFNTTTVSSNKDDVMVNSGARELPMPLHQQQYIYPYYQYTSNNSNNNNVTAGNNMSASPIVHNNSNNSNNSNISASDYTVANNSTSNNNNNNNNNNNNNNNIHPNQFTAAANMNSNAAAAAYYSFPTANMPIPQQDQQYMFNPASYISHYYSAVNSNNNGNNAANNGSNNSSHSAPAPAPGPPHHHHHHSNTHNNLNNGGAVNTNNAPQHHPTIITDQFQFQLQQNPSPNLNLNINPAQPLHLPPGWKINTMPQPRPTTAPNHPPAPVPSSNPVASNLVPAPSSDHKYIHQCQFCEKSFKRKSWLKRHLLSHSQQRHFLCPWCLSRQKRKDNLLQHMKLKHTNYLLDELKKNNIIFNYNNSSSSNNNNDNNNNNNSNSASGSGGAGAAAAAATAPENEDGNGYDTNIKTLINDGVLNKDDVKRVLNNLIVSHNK
run-description: PBM E-score (8-mer binding enrichment) (E-score (-0.5 to 0.5)); higher = stronger / more preferred TF binding
details: protein concentration: 200 nM; construct: GST-full length
The full ranking holds about 33,000 sequences; the median of “E-score (-0.5 to 0.5)” is about -0.035, and the highest 2% start at about 0.34. This excerpt belongs to a sample that is enriched for the highest values.
readout-label: PBM E-score
Reply: number alone, nothing else.

Take a look at these entries with their results.
TGTAAAAA	0.379
AGGAACGC	0.451
GGTGTGTA	0.335
CACAGGCC	0.0987
ATTTACTC	0.159
TGCTAAAA	0.0711
GTGAAAAA	0.155
ATTCCATG	0.0576
TATAGGGA	-0.0815
AGGGCCCT	-0.368

Prompt: Could you please provide reported PBM E-score for `GTATGCTA` ? Thanks!
Response: -0.0526

Prompt: Quickly give me recorded PBM E-score for `CTCATGTA`
Response: 0.359

====

tested-target: Mot3 (UniProt P54785)
Sequence: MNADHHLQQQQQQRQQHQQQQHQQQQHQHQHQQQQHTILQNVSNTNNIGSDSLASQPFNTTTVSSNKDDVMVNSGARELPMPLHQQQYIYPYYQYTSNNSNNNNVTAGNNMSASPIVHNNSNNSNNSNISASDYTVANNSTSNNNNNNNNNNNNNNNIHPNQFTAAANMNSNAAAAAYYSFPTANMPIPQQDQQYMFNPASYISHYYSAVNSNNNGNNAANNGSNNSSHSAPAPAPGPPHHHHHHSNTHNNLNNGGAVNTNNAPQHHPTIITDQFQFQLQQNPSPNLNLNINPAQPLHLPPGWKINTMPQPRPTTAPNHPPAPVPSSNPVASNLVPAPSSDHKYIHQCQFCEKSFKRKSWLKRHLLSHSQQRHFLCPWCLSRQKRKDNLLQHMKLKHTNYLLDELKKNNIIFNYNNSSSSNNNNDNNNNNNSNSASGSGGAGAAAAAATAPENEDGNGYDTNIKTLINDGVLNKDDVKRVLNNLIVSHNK
run-description: PBM E-score (8-mer binding enrichment) (E-score (-0.5 to 0.5)); higher = stronger / more preferred TF binding
details: protein concentration: 200 nM; construct: GST-full length
In all, about 33,000 sequences were measured (“E-score (-0.5 to 0.5)”: median about -0.035, highest 2% from about 0.34 on). What follows is part of a selection rich in the highest values, with near analogues and random picks from the rest.
readout-label: PBM E-score
# print the numeric value only

CGAAGGAC	-0.03
TGAAGGAA	0.434
CCTGCCTA	0.244
GGAAGGAC	-0.122
AGAAGGAT	0.0925
GACTTAGA	-0.164
CGAAGGAG	-0.225
AGAAGGAC	-0.198
ACTGCGGC	-0.227
GACACGAA	0.145

Prompt: Please look at this sequence and report its PBM E-score: `GAATGCAA`
Response: -0.0468

Prompt: Give the value of PBM E-score reported for the following: `GCCTTTAC`
Response: 0.357

Prompt: Provide one value: measured PBM E-score of `TGGAGGAA`
Response: 0.0436

Prompt: Answer with the recorded PBM E-score of `AGAAGGAA` only.
Response: 0.382

Prompt: Tell us which PBM E-score value is on record for `AACTTAAA`
Response: 0.212

Prompt: Output PBM E-score of `GCTGTTTA`
Response: -0.0345

Prompt: # return recorded PBM E-score for entry `AGAAGGAG`
Response: -0.107

Taken from the supplement of paper PMC3334620.
